These entries and their values trace back to paper PMC6521605.

Listing of entries alongside the reported pKd.
- TESTED TARGET: T1, Rexo2 H194A (Homo sapiens, UniProt Q9Y3B8 33-223, H194A)
- T1 sequence: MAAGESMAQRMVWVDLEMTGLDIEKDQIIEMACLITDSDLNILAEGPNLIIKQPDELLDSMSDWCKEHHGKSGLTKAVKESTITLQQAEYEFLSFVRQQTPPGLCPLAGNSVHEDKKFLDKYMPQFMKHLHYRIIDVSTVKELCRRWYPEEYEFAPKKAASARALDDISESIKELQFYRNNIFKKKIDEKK
- TEST DESCRIPTION: fluorescence polarization; 50 mM EDTA; FP: 10 nM Cy3-oligonucleotide, 50 mM Tris-HCl pH 7.5, 50 mM NaCl, 50 mM EDTA, 15 min at 25 C; crystals: 0.2 M ammonium citrate dibasic, 20% PEG 3350, pH 5.1, room temperature
- RUN PARAMETERS: protein: recombinant; tags: N-terminal 6xHis removed by thrombin; chain copies: 2; label: 5'-Cy3; single strand
On this scale, pKd is minus log10 of a concentration expressed in M (mol/L).

Here's what some known entries look like.
# BINDER, MEASURED ATTRIBUTE, DATA VALUE
data = [
    ("TTT (ssDNA) [3-nt DNA T3]", "pKd", 7.52),
    ("TTTTTTTTTTTT (ssDNA) [12-nt DNA T12]", "pKd", 7.28),
]

Now look at this one.
So what's the measured pKd for this one? TTTTT (ssDNA) [5-nt DNA T5 (Cy3)]
7.29
